tested on: tet operator sequence; test: β-galactosidase activity of a tetracycline-regulated promoter in transformed E. coli with revTetR, in the presence and absence of anhydrotetracycline (atc); assay type: cell-based, Escherichia coli; conditions: RevTetR isolate cultured in the presence of anhydrotetracycline (ATC)
parameter: β-Galactosidase Activity, Cultured With ATC

1. TetRrevDox4-2: revTetR(BD) D53E A54S I59M A61P (protein, Modified tetracycline repressor, revTetR(BD) D53E A54S I59M A61P) MSRLDKSKVINSALELLNEVGIEGLTTRKLAQKLGVEQPTLYWHVKNKRALLESLAVEMLPRHHDYSLPAAGESWQSFLRNNAMSFRRALLRYRDGAKVHLGTRPDEKQYDTVETQLRFMTENGFSLRDGLYAISAVSHFTLGAVLEQQEHTAALTDRPAAPDENLPPLLREALQIMDSDDGEQAFLHGLESLIRGFEVQLTALLQIV : 9.547
